biological target: MYLK (human) (UniProt Q15746); assay: radiometric filter-binding kinase assay, Kinase HotSpot; settings: compound 0.5 µM; ATP 10 µM
Each item that follows carries a reported residual activity.
property: residual activity (%)

INSERT INTO assay_data (structure_notation, tested_on, unit_text, endpoint_result) VALUES
  ('CN(C)C[C@H]1CCn2c(c(C3=C(c4cn(C)c5ccccc45)C(=O)NC3=O)c3ccccc32)C1', 'MYLK (human) (UniProt Q15746)', '%', 84),
  ('O=C(CCCc1ccc(-c2ccccc2F)cc1)Nc1ccc(O)cc1', 'MYLK (human) (UniProt Q15746)', '%', 98.6),
  ('O=C(Nc1cccc(Nc2cc(Nc3cccc(C(F)(F)F)c3)ncn2)c1)C1CC1', 'MYLK (human) (UniProt Q15746)', '%', 99),
  ('CC(C)c1nn(-c2c(Cl)cccc2Cl)c2nc(Cc3ccc(OCCO)cc3)nc(O)c12', 'MYLK (human) (UniProt Q15746)', '%', 98.3);

---

Each item that follows carries a reported residual activity.
target: MUSK (human) (UniProt O15146); test: radiometric filter-binding kinase assay, Kinase HotSpot; details: compound 0.5 µM; ATP 10 µM
Sequence (O15146 whole entry, looked up): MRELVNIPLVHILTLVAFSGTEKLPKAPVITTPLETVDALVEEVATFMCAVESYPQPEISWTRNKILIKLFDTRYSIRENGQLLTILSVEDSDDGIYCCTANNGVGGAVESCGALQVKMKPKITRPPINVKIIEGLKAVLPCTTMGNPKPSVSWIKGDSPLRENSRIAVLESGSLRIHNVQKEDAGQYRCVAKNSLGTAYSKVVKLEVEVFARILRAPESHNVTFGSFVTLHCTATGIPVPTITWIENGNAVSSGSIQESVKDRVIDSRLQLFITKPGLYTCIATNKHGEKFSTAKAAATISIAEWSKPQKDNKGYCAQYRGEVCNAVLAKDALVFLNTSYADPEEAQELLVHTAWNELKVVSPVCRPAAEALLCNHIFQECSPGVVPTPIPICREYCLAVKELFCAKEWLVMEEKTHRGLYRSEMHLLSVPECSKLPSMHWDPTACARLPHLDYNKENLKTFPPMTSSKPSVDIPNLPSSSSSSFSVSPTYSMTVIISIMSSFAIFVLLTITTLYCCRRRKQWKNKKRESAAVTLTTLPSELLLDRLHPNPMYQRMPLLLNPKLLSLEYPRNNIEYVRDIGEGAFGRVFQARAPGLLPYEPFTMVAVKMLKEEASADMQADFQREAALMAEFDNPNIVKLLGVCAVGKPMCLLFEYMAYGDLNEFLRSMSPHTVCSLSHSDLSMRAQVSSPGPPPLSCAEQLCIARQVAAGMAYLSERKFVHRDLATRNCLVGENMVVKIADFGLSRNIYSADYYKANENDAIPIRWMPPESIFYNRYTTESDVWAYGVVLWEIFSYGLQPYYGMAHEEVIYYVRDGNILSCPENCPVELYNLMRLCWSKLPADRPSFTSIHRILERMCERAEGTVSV
property: residual activity (%)

INSERT INTO measurements (structure_notation, endpoint_result) VALUES
  ('CCN(CC)CCCCN1c2ccccc2Oc2ccc(Cl)cc21', 103),
  ('Oc1ccc(Nc2nc(-c3ccc(Cl)cc3)cs2)cc1', 99.5),
  ('CC(C)[C@H](CO)Nc1nc(Nc2cc(N)cc(Cl)c2)c2ncn(C(C)C)c2n1', 46),
  ('O=C1Nc2ccccc2/C1=C1\Nc2ccccc2\C1=N/O', 71.2),
  ('CN([C@@H](Cc1ccc(OS(=O)(=O)c2cccc3cnccc23)cc1)C(=O)N1CCN(c2ccccc2)CC1)S(=O)(=O)c1cccc2cnccc12', 92.7);

---

Each item that follows carries a reported residual activity.
target: PAK6 (human) (UniProt Q9NQU5); assay: radiometric filter-binding kinase assay, Kinase HotSpot; conditions: compound 0.5 µM; ATP 10 µM
Sequence (Q9NQU5 whole entry, looked up): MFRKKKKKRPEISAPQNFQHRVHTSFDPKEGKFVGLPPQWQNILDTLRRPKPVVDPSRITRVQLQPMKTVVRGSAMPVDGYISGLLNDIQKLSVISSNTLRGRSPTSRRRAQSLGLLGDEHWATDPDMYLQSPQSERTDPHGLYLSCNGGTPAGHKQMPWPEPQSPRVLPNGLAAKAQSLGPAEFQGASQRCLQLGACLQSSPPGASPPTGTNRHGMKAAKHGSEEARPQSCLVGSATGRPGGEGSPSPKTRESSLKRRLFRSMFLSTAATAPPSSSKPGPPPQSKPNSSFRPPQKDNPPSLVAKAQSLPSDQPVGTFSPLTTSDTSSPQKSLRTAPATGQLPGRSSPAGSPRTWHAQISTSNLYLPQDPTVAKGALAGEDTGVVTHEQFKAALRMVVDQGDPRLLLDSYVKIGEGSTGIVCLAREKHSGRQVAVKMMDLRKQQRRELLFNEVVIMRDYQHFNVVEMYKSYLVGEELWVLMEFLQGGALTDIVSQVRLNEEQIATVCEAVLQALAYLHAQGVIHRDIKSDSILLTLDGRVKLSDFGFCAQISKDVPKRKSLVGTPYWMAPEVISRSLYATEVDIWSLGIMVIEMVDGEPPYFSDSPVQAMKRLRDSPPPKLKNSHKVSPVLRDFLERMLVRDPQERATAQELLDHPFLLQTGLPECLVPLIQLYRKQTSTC
property: residual activity (%)

INSERT INTO measurements (compound, endpoint_result) VALUES
  ('COc1ccc(OC)c2c(=S)c3ccccc3[nH]c12', 112),
  ('O=C(CCCc1ccc(-c2ccccc2F)cc1)Nc1ccc(O)cc1', 108),
  ('O=C(O)/C=C/c1cc(Br)c(Br)c(Br)c1Br', 110),
  ('O=C(Nc1cccc(Nc2cc(Nc3cccc(C(F)(F)F)c3)ncn2)c1)C1CC1', 99.3),
  ('CN([C@@H](Cc1ccc(OS(=O)(=O)c2cccc3cnccc23)cc1)C(=O)N1CCN(c2ccccc2)CC1)S(=O)(=O)c1cccc2cnccc12', 102),
  ('COc1cc2ncnc(N3CCN(C(=O)Nc4ccc(Oc5ccccc5)cc4)CC3)c2cc1OC', 95.2),
  ('CN(C)C[C@H]1CCn2c(c(C3=C(c4cn(C)c5ccccc45)C(=O)NC3=O)c3ccccc32)C1', 114),
  ('Nc1nccc(-c2c(-c3ccc(F)cc3)ncn2C2CCNCC2)n1', 111),
  ('CCN(CC)CCCCN1c2ccccc2Oc2ccc(Cl)cc21', 102),
  ('O=C1Nc2ccccc2/C1=C1/Nc2ccccc2/C1=N\OCCC(O)CO (stereo unspecified)', 93.5),
  ('O=C1NC(=O)C(c2c[nH]c3ccccc23)=C1c1c[nH]c2ccccc12', 92.4),
  ('COc1cc2ncc(-c3ccccc3)nc2cc1OC', 82.8),
  ('Cn1sc(=O)n(Cc2ccccc2)c1=O', 93.4),
  ('CCn1cnc2c(Nc3cccc(Cl)c3)nc(N[C@@H]3CCCC[C@@H]3N)nc21', 96.7),
  ('O=C1Cc2c([nH]c3ccc(Br)cc23)-c2ccccc2N1', 97.8),
  ('Cc1nc2cc3nc(-c4cccs4)cnc3cc2n1C', 96.6);

---

molecular target: UniProt:P37023; experiment: radiometric filter-binding kinase assay, Kinase HotSpot; settings: compound 0.5 µM; ATP 10 µM
Sequence (P37023 whole entry, looked up): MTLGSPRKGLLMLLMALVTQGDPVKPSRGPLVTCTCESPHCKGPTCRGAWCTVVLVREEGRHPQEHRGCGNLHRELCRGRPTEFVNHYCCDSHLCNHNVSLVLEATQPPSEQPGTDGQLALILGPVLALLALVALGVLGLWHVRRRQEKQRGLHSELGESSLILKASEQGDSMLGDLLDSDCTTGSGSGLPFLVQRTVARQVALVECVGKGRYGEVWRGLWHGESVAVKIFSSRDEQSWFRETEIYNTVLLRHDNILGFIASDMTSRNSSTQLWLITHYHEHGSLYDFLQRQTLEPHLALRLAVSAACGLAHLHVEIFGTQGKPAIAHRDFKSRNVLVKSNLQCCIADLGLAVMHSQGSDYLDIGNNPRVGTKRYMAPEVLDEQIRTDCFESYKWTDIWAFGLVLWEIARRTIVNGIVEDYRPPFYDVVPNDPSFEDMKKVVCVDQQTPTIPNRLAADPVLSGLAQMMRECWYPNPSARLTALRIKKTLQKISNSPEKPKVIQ
Each item that follows carries a reported residual activity.
property: residual activity (%)

INSERT INTO results (molecule, property, unit_text, endpoint_result) VALUES
  ('Nc1nnc2[nH]c3ccccc3nc1-2', 'residual activity', '%', 105),
  ('CC(C)[C@H](CO)Nc1nc(Nc2cc(N)cc(Cl)c2)c2ncn(C(C)C)c2n1', 'residual activity', '%', 109),
  ('Cn1nc2c3c(cccc31)C(=O)c1ccccc1-2', 'residual activity', '%', 102),
  ('CC(C)c1nn(-c2c(Cl)cccc2Cl)c2nc(Cc3ccc(OCCO)cc3)nc(O)c12', 'residual activity', '%', 103),
  ('COc1ccc(OC)c2c(=S)c3ccccc3[nH]c12', 'residual activity', '%', 99),
  ('COc1cc2ncc(-c3ccccc3)nc2cc1OC', 'residual activity', '%', 95.8),
  ('O=C1NC(=O)C(c2cn(CCCO)c3ncccc23)=C1c1cnccn1', 'residual activity', '%', 105),
  ('CC(=O)O/N=C1\C(=C2\C(=O)Nc3cc(Br)ccc32)Nc2ccccc21', 'residual activity', '%', 107),
  ('Cn1sc(=O)n(Cc2ccccc2)c1=O', 'residual activity', '%', 117),
  ('O=C1Nc2ccccc2/C1=C1/Nc2ccccc2/C1=N\OCCC(O)CO (stereo unspecified)', 'residual activity', '%', 103),
  ('COc1ccc(CNC(=O)Nc2ncc([N+](=O)[O-])s2)cc1', 'residual activity', '%', 106);

---

target: PHKG1 (human); assay: radiometric filter-binding kinase assay, Kinase HotSpot; conditions: compound 0.5 µM; ATP 10 µM
property: residual activity (%)

INSERT INTO assay_data (compound, unit_text, endpoint_result) VALUES
  ('O=C1NC(=O)C(c2cn(CCCO)c3ncccc23)=C1c1cnccn1', '%', 87.2),
  ('COc1cc2ncc(-c3ccccc3)nc2cc1OC', '%', 92.4),
  ('COc1ccc(CNC(=O)Nc2ncc([N+](=O)[O-])s2)cc1', '%', 101),
  ('O=C1Nc2ccccc2/C1=C1/Nc2ccccc2/C1=N\OCCC(O)CO (stereo unspecified)', '%', 8.06),
  ('Nc1nccc(-c2c(-c3ccc(F)cc3)ncn2C2CCNCC2)n1', '%', 98.3),
  ('CCn1cnc2c(Nc3cccc(Cl)c3)nc(N[C@@H]3CCCC[C@@H]3N)nc21', '%', 62.8);

---

target: ULK1 (human) (UniProt O75385); assay: radiometric filter-binding kinase assay, Kinase HotSpot; conditions: compound 0.5 µM; ATP 10 µM
Sequence (O75385 whole entry, looked up): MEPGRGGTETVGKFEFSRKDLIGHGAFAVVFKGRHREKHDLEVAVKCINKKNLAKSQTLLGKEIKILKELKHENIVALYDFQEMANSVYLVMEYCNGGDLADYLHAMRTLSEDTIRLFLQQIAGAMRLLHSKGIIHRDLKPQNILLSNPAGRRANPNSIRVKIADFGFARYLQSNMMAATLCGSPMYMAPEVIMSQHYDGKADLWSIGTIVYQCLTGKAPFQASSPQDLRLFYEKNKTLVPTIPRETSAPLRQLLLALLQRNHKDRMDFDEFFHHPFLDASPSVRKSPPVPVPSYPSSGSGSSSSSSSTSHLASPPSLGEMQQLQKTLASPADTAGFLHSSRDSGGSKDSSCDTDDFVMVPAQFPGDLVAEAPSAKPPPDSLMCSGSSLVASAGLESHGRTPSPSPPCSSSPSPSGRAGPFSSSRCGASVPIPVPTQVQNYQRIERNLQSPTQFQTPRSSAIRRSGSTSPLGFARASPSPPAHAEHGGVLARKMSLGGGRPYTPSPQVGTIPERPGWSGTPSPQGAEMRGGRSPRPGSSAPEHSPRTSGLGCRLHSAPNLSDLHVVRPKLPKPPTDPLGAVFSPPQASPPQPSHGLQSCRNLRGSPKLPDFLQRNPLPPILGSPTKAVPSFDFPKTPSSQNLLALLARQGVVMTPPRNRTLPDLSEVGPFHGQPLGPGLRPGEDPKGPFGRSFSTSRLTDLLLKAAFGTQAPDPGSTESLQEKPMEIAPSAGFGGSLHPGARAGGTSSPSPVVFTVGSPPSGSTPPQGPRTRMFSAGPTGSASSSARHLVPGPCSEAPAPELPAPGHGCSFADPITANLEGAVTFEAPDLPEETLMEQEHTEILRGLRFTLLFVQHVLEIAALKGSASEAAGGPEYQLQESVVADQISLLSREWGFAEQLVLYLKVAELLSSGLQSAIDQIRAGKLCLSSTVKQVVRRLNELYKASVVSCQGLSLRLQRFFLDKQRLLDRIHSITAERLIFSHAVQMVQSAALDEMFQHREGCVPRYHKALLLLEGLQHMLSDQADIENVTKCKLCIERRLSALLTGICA
property: residual activity (%)

INSERT INTO measurements (structure_notation, tested_on, property, endpoint_result) VALUES
  ('O=C1NC(=O)C(c2c[nH]c3ccccc23)=C1c1c[nH]c2ccccc12', 'ULK1 (human) (UniProt O75385)', 'residual activity', 105),
  ('CCN(CC)CCCCN1c2ccccc2Oc2ccc(Cl)cc21', 'ULK1 (human) (UniProt O75385)', 'residual activity', 99.8),
  ('Nc1nnc2[nH]c3ccccc3nc1-2', 'ULK1 (human) (UniProt O75385)', 'residual activity', 106),
  ('O=C(O)/C=C/c1cc(Br)c(Br)c(Br)c1Br', 'ULK1 (human) (UniProt O75385)', 'residual activity', 108),
  ('CC(C)[C@H](CO)Nc1nc(Nc2cc(N)cc(Cl)c2)c2ncn(C(C)C)c2n1', 'ULK1 (human) (UniProt O75385)', 'residual activity', 41.5);

---

molecular target: MYLK2 (human) (UniProt Q9H1R3); experiment: radiometric filter-binding kinase assay, Kinase HotSpot; settings: compound 0.5 µM; ATP 10 µM
Sequence (Q9H1R3 whole entry, looked up): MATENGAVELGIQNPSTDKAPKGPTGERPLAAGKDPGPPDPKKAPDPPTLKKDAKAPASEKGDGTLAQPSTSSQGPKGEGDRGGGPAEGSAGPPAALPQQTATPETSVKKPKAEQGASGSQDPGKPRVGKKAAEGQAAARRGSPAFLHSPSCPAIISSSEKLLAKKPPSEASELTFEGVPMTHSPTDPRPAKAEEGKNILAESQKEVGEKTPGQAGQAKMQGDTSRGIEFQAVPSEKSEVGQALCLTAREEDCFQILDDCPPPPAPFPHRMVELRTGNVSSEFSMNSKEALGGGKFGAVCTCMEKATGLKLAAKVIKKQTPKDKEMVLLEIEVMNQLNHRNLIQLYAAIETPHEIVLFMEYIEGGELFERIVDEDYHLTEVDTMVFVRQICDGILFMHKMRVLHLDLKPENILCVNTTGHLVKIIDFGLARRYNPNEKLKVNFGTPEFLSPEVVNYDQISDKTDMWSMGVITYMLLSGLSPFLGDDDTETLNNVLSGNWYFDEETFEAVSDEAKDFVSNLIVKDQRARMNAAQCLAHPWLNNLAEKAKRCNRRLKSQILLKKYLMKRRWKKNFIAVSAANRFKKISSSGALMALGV
Each item that follows carries a reported residual activity.
property: residual activity (%)

INSERT INTO measurements (compound, endpoint_result) VALUES
  ('O=C1Nc2ccccc2/C1=C1\Nc2ccccc2\C1=N/O', 41.1),
  ('O=C1NC(=O)C(c2cn(CCCO)c3ncccc23)=C1c1cnccn1', 81.1),
  ('Cc1nc2cc3nc(-c4cccs4)cnc3cc2n1C', 74.5),
  ('COc1cc2ncc(-c3ccccc3)nc2cc1OC', 100),
  ('CC(C)c1nn(-c2c(Cl)cccc2Cl)c2nc(Cc3ccc(OCCO)cc3)nc(O)c12', 96.6),
  ('O=C1Nc2ccccc2/C1=C1/Nc2ccccc2/C1=N\OCCC(O)CO (stereo not given)', 27.3),
  ('O=C1Cc2c([nH]c3ccc(Br)cc23)-c2ccccc2N1', 96.8),
  ('CN([C@@H](Cc1ccc(OS(=O)(=O)c2cccc3cnccc23)cc1)C(=O)N1CCN(c2ccccc2)CC1)S(=O)(=O)c1cccc2cnccc12', 98.8),
  ('CN(C)C[C@H]1CCn2c(c(C3=C(c4cn(C)c5ccccc45)C(=O)NC3=O)c3ccccc32)C1', 74.2),
  ('O=C(Nc1cccc(Nc2cc(Nc3cccc(C(F)(F)F)c3)ncn2)c1)C1CC1', 98.9);
